For each of the molecules below, state its IC50.
# Test system: MCF7
# Measurement Notes: Anticancer activity against human MCF7 cells after 48 hrs by MTT assay
# Format: functional, cell-based
# Condition Context: MCF7, 48 h
Express your answer in µM, writing the number without its unit.

Consider the molecule `COc1ccc(/C=C/C(=O)c2cc(OC)c(OC)c(OC)c2)cc1OCC(=O)N[C@@H]1c2cc3c(cc2[C@@H](c2cc(OC)c(OC)c(OC)c2)[C@H]2C(=O)OC[C@@H]21)OCO3` and give its recorded IC50. 15.4

Consider the molecule `COc1cc([C@@H]2c3cc4c(cc3[C@@H](NC(=O)/C=C/c3ccc(Cl)c(Cl)c3)[C@H]3COC(=O)[C@H]23)OCO4)cc(OC)c1OC` and give its recorded IC50. 20.1

Consider the molecule `COc1cc([C@@H]2c3cc4c(cc3[C@@H](NC(=O)/C=C/c3ccc(C(F)(F)F)cc3)[C@H]3COC(=O)[C@H]23)OCO4)cc(OC)c1OC` and give its recorded IC50. 19.2

Consider the molecule `COc1cc(/C=C/C(=O)c2ccc(F)cc2)ccc1OCC(=O)N[C@@H]1c2cc3c(cc2[C@@H](c2cc(OC)c(OC)c(OC)c2)[C@H]2C(=O)OC[C@@H]21)OCO3` and give its recorded IC50. 19.1

Consider the molecule `COc1ccc(C(=O)/C=C/c2ccc(OCC(=O)N[C@@H]3c4cc5c(cc4[C@@H](c4cc(OC)c(OC)c(OC)c4)[C@H]4C(=O)OC[C@@H]43)OCO5)c(OC)c2)cc1` and give its recorded IC50. 16.2

Consider the molecule `COc1ccc(C(=O)/C=C/c2ccc(OCCCCCC(=O)N[C@@H]3c4cc5c(cc4[C@@H](c4cc(OC)c(OC)c(OC)c4)[C@H]4C(=O)OC[C@@H]43)OCO5)c(OC)c2)cc1` and give its recorded IC50. 12

Consider the molecule `COc1cccc(C(=O)/C=C/c2ccc(OCCCCCC(=O)N[C@@H]3c4cc5c(cc4[C@@H](c4cc(OC)c(OC)c(OC)c4)[C@H]4C(=O)OC[C@@H]43)OCO5)c(OC)c2)c1` and give its recorded IC50. 17.5

Consider the molecule `COc1cc(/C=C/C(=O)c2c(C)nc3ccccc3c2C)ccc1OCC(=O)N[C@@H]1c2cc3c(cc2[C@@H](c2cc(OC)c(OC)c(OC)c2)[C@H]2C(=O)OC[C@@H]21)OCO3` and give its recorded IC50. 13.8

Consider the molecule `COc1cc(C(=O)/C=C/c2ccc(OCCCCCC(=O)N[C@@H]3c4cc5c(cc4[C@@H](c4cc(OC)c(OC)c(OC)c4)[C@H]4C(=O)OC[C@@H]43)OCO5)cc2)cc(OC)c1OC` and give its recorded IC50. 24.8

Consider the molecule COc1cc([C@@H]2c3cc4c(cc3[C@@H](O[C@@H]3O[C@@H]5CO[C@@H](C)O[C@H]5[C@H](O)[C@H]3O)[C@H]3COC(=O)[C@H]23)OCO4)cc(OC)c1O [ETOPOSIDE] and give its recorded IC50. 0.68

Consider the molecule `COc1cccc2c1C(=O)c1c(O)c3c(c(O)c1C2=O)C[C@@](O)(C(=O)CO)C[C@@H]3O[C@H]1C[C@H](N)[C@H](O)[C@H](C)O1` and give its recorded IC50. 2.02

Consider the molecule `COc1cc(/C=C/C(=O)c2cccc([N+](=O)[O-])c2)ccc1OCC(=O)N[C@@H]1c2cc3c(cc2[C@@H](c2cc(OC)c(OC)c(OC)c2)[C@H]2C(=O)OC[C@@H]21)OCO3` and give its recorded IC50. 6.7

Consider the molecule `COc1cc(/C=C/C(=O)c2c(C)nc3ccccc3c2C)ccc1OCCCCCC(=O)N[C@@H]1c2cc3c(cc2[C@@H](c2cc(OC)c(OC)c(OC)c2)[C@H]2C(=O)OC[C@@H]21)OCO3` and give its recorded IC50. 8.6

Consider the molecule `COc1cccc(C(=O)/C=C/c2ccc(OCC(=O)N[C@@H]3c4cc5c(cc4[C@@H](c4cc(OC)c(OC)c(OC)c4)[C@H]4C(=O)OC[C@@H]43)OCO5)c(OC)c2)c1` and give its recorded IC50. 21.8

Consider the molecule `COc1ccc(/C=C/C(=O)N[C@@H]2c3cc4c(cc3[C@@H](c3cc(OC)c(OC)c(OC)c3)[C@H]3C(=O)OC[C@@H]32)OCO4)cc1` and give its recorded IC50. 15.7

Consider the molecule `O=C(O)/C=C/c1ccc(C(F)(F)F)cc1` and give its recorded IC50. 142

Consider the molecule `COc1cc(/C=C/C(=O)c2cc(OC)c(OC)c(OC)c2)ccc1OCC(=O)N[C@@H]1c2cc3c(cc2[C@@H](c2cc(OC)c(OC)c(OC)c2)[C@H]2C(=O)OC[C@@H]21)OCO3` and give its recorded IC50. 14.9

Consider the molecule `COc1cc(C(=O)/C=C/c2cccc(OCC(=O)N[C@@H]3c4cc5c(cc4[C@@H](c4cc(OC)c(OC)c(OC)c4)[C@H]4C(=O)OC[C@@H]43)OCO5)c2)cc(OC)c1OC` and give its recorded IC50. 24.4

Consider the molecule `COc1cc([C@@H]2c3cc4c(cc3[C@@H](NC(=O)/C=C/c3ccccc3)[C@H]3COC(=O)[C@H]23)OCO4)cc(OC)c1OC` and give its recorded IC50. 19.7

Consider the molecule `COc1cc([C@@H]2c3cc4c(cc3[C@H](O)[C@H]3COC(=O)[C@H]23)OCO4)cc(OC)c1OC` and give its recorded IC50. 1.18

Consider the molecule `COc1cc([C@@H]2c3cc4c(cc3[C@@H](NC(=O)/C=C/c3ccc(Br)cc3)[C@H]3COC(=O)[C@H]23)OCO4)cc(OC)c1OC` and give its recorded IC50. 11.2

Consider the molecule `COc1cc(/C=C/C(=O)c2c(C)nc3ccccc3c2-c2ccccc2)ccc1OCCCCCC(=O)N[C@@H]1c2cc3c(cc2[C@@H](c2cc(OC)c(OC)c(OC)c2)[C@H]2C(=O)OC[C@@H]21)OCO3` and give its recorded IC50. 2.2

###

For each of the compounds below, state its IC50.
# System: MCF7
# Measurement Notes: Anticancer activity against human MCF7 cells after 48 hrs by MTT assay
# Type: functional, cell-based
# Condition Context: MCF7, 48 h
Express your answer in µM, writing the number without its unit.

Consider the compound `O=C(O)/C=C/c1ccccc1` and give its recorded IC50. 108

Consider the compound `COc1cc(/C=C/C(=O)c2ccc(F)cc2)ccc1OCCCCCC(=O)N[C@@H]1c2cc3c(cc2[C@@H](c2cc(OC)c(OC)c(OC)c2)[C@H]2C(=O)OC[C@@H]21)OCO3` and give its recorded IC50. 15.8

Consider the compound `COc1cc(/C=C/C(=O)c2cc(OC)c(OC)c(OC)c2)ccc1OCCCCCC(=O)N[C@@H]1c2cc3c(cc2[C@@H](c2cc(OC)c(OC)c(OC)c2)[C@H]2C(=O)OC[C@@H]21)OCO3` and give its recorded IC50. 10.2

Consider the compound `COc1cc(/C=C/C(=O)c2c(C)nc3ccccc3c2-c2ccccc2)ccc1OCC(=O)N[C@@H]1c2cc3c(cc2[C@@H](c2cc(OC)c(OC)c(OC)c2)[C@H]2C(=O)OC[C@@H]21)OCO3` and give its recorded IC50. 11.2

Consider the compound `COc1cc(/C=C/C(=O)N[C@@H]2c3cc4c(cc3[C@@H](c3cc(OC)c(OC)c(OC)c3)[C@H]3C(=O)OC[C@@H]32)OCO4)cc(OC)c1OC` and give its recorded IC50. 17.7

Consider the compound `COc1cc(C(=O)/C=C/c2cccc(OCCCCCC(=O)N[C@@H]3c4cc5c(cc4[C@@H](c4cc(OC)c(OC)c(OC)c4)[C@H]4C(=O)OC[C@@H]43)OCO5)c2)cc(OC)c1OC` and give its recorded IC50. 8.3

###

# System: MCF7
# Measurement Notes: Anticancer activity against human MCF7 cells after 48 hrs by MTT assay
# Assay type: functional, cell-based
# Condition Context: MCF7, 48 h
For each of the molecules below, state its pIC50.
# log scale: pIC50 equals minus log10 of the concentration in mol/L

Consider the molecule `COc1cc(C(=O)/C=C/c2ccc(OCC(=O)N[C@@H]3c4cc5c(cc4[C@@H](c4cc(OC)c(OC)c(OC)c4)[C@H]4C(=O)OC[C@@H]43)OCO5)cc2)cc(OC)c1OC` and give its recorded pIC50. 4.62

Consider the molecule `COc1cc([C@@H]2c3cc4c(cc3[C@@H](NC(=O)/C=C/c3ccc(Cl)cc3)[C@H]3COC(=O)[C@H]23)OCO4)cc(OC)c1OC` and give its recorded pIC50. 4.86

Consider the molecule `COc1cc([C@@H]2c3cc4c(cc3[C@@H](NC(=O)/C=C/c3ccc(F)cc3)[C@H]3COC(=O)[C@H]23)OCO4)cc(OC)c1OC` and give its recorded pIC50. 4.84
